biological target: T1, meditope-enabled trastuzumab; test: SPR; earlier SPR study of paragraph 680, approximate binding constant stated in text
T1 construct: Full IgG expressed in mammalian cells; also called TM; trastuzumab memAb
T1 sequence (heavy, as listed by the source limits assumed, chain 1 of 2): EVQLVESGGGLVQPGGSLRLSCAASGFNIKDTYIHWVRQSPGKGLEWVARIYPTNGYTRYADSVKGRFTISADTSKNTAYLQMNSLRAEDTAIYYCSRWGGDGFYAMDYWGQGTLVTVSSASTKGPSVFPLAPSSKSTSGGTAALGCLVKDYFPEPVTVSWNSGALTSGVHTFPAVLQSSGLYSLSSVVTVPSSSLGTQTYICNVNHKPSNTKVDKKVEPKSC
T1 sequence (light, as listed by the source limits assumed, chain 2 of 2): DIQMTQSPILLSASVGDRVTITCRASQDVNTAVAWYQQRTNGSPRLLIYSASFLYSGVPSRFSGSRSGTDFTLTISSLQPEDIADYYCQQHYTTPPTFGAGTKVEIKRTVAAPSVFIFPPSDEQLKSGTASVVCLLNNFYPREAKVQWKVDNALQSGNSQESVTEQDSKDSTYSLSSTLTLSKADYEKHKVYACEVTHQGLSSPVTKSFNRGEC
pKd: −log10 of the molar value.
Endpoint: pKd

# Binder, Test value
data = [
    ("Protein L (single Fab binding domain) (other, also called Protein L (only); protein L alone) EVTIKVNLIFADGKIQTAEFKGTFEEATAEAYRYAALLAKVNGEYTADLEDGGNHMNIKFAG", "~6.30"),
]
